Parameter: koff. Scope: all listed entries.
Tested on: T1, recombinant biotinylated rat PAR2 extracellular residues 1-75, N-terminal AviTag, C-terminal Flag and poly … (rat, UniProt Q63645 26-75, not fully specified; biotin on the AviTag (enzymatic biotinylation))
T1 construct: range 1-75; not shown: N-terminal AviTag (Avidity LLC); C-terminal Flag and poly Histidine tags
T1 chain (looked up): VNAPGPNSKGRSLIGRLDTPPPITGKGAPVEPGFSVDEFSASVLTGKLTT
Protocol: Biacore SPR 25 C, pH 7.4
Quantity: koff (s⁻¹)

binder="PaB670076 Fab (Fab, V domains shown, Fab; also called ZZ1NHH-F09) VH: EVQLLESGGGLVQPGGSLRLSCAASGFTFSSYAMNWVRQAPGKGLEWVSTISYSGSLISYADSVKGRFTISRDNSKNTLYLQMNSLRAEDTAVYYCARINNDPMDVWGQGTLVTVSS VL: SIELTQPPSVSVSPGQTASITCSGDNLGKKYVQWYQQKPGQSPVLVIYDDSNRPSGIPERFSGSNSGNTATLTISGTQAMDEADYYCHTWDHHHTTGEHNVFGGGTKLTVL" quantity=koff quantity_unit=s⁻¹ assay_value=0.0107
binder="PaB670129 Fab (Fab, V domains shown, Fab; also called ZZ1RUE-F02) VH: EVQLLESGGGLVQPGGSLRLSCAASGFTFSSYAMNWVRQAPGKGLEWVSTISYHGSHISYHDSVHHRFTISRDNSKNTLYLQMNSLRAEDTAVYYCARIHHDPMDVWGQGTLVTVSS VL: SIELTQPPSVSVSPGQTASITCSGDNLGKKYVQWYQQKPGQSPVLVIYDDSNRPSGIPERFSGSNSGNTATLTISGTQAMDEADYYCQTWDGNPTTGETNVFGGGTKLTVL" quantity=koff quantity_unit=s⁻¹ assay_value=0.0263
binder="Par0067 Fab (Fab, V domains shown, Fab; also called ZZ15D2-D02) VH: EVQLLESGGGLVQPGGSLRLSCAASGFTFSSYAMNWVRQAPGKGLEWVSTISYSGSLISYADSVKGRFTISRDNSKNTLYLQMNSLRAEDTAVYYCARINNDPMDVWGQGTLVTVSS VL: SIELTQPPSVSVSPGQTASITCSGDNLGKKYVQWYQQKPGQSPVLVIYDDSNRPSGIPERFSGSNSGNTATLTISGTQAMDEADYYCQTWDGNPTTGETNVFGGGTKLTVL" quantity=koff quantity_unit=s⁻¹ assay_value=0.000194
